- TESTED SYSTEM: SBP (sucrose binding protein; MBP mutant Asp14Leu, Lys15Phe, Trp62Tyr, Glu111Tyr) fusion protein CSY-BII (Escherichia coli, UniProt P0AEX9, D40L/E137Y/K41F/W88Y)
- Construct: SBP = engineered MBP made on pMALc2x template; expressed in E. coli JM109(DE3), purified
- EXPERIMENT: Sucrose and maltose titration of FRET sensor CSY-BII
EXPERIMENTAL ENDPOINT: Kd (µM)
Give bare numbers, in µM.

What the record says about OC[C@H]1O[C@@](CO)(O[C@H]2O[C@H](CO)[C@@H](O)[C@H](O)[C@H]2O)[C@@H](O)[C@@H]1O [sucrose] : Kd is 234

Data provenance is patent US7432353B2.
